Cited source for all entries: the supplement of paper PMC9112550

tested on: Escherichia coli TOP10; assay: shrunken log2 fold change of peptide-encoding DNA abundance (4.5 h post-induction vs induction); higher = less antimicrobial activity (less host growth inhibition); details: time post-induction: 4.5 h; library: site-saturation at positions 5, 18, 19, 20;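 also: peptides expressed intracellularly from a pBAD plasmid library in pooled LB shake-flask culture, induced with 0.3% L-arabinose, DNA abundance read by NGS, three biological replicates, DESeq2 with apeglm shrinkage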
quantity_name: shrunken log2 fold change
Just the number, please, no unit attached.

The examples below pair each entry with its known result.
# ordered_residues, assayed_target, value
data = [
    ("RRIRNRPPRLPRPRPRPWWTPRP", "Escherichia coli TOP10", -0.129),
    ("RRIRVRPPRLPRPRPRPEVIPRP", "Escherichia coli TOP10", -0.595),
    ("RRIRERPPRLPRPRPRPFHTPRP", "Escherichia coli TOP10", -0.0574),
    ("RRIRGRPPRLPRPRPRPNVFPRP", "Escherichia coli TOP10", 0.27),
]

input: Hello, please tell me recorded shrunken log2 fold change for this one: RRIRYRPPRLPRPRPRPQSVPRP
output: -0.11

input: Hello, please tell me recorded shrunken log2 fold change for this one: RRIRNRPPRLPRPRPRPCHTPRP
output: -0.316

input: Hello, please tell me recorded shrunken log2 fold change for this one: RRIRMRPPRLPRPRPRPVWQPRP
output: 0.752

input: Hello, please tell me recorded shrunken log2 fold change for this one: RRIRPRPPRLPRPRPRPNVNPRP
output: -0.46

input: Hello, please tell me recorded shrunken log2 fold change for this one: RRIRRRPPRLPRPRPRPFFIPRP
output: -0.0305

input: Hello, please tell me recorded shrunken log2 fold change for this one: RRIRIRPPRLPRPRPRPPGYPRP
output: 0.0184
